- Tested on: Mus musculus
- experiment.summary: Antinociceptive activity in ip dosed Swiss albino mouse assessed as latency time after 60 mins by hot plate method
- Assay type: functional
Just a reminder that ties go to -1: only Activity strictly below 5 s counts as 1.

Consider the following illustrative entries.
COc1cccc(-c2nc(-c3ccccc3)c(-c3ccccc3)[nH]2)c1 :: -1
Cc1cccc(-c2nc(-c3ccccc3)c(-c3ccccc3)[nH]2)c1 :: 1
Oc1ccccc1-c1nc(-c2ccccc2)c(-c2ccccc2)[nH]1 :: -1
Cc1ccccc1-c1nc(-c2ccccc2)c(-c2ccccc2)[nH]1 :: 1
COc1cc(-c2nc(-c3ccccc3)c(-c3ccccc3)[nH]2)ccc1O :: -1

Enquiry: Quick check: Activity of O=[N+]([O-])c1ccccc1-c1nc(-c2ccccc2)c(-c2ccccc2)[nH]1 under 5 s?
Return: 1

Enquiry: Given the entry Cc1nc(-c2ccccc2)c(-c2ccccc2)[nH]1 , would its reported Activity be below 5 s?
Return: -1

Enquiry: Please determine if Nc1ccc(-c2nc(-c3ccccc3)c(-c3ccccc3)[nH]2)cc1 is below 5 s in terms of Activity.
Return: -1

Enquiry: Bench note: check whether Clc1cccc(-c2nc(-c3ccccc3)c(-c3ccccc3)[nH]2)c1 shows Activity below 5 s
Return: -1

Enquiry: # TODO verify Activity < 5 s strictly for this compound: CN(C)c1ccc(-c2nc(-c3ccccc3)c(-c3ccccc3)[nH]2)cc1
Return: -1

Enquiry: Please indicate whether the reported Activity of Cc1ccc(-c2nc(-c3ccccc3)c(-c3ccccc3)[nH]2)cc1 is strictly below 5 s.
Return: 1

Enquiry: Lab note: confirm whether the reported Activity for this compound is below 5 s, equality not counting. compound: Clc1ccccc1-c1nc(-c2ccccc2)c(-c2ccccc2)[nH]1
Return: -1

Enquiry: Consider the compound C(=C\c1nc(-c2ccccc2)c(-c2ccccc2)[nH]1)/c1ccccc1 . Is its Activity strictly less than 5 s?
Return: -1

Enquiry: Lab log: compare recorded Activity with 5 s; is it strictly lower for Fc1ccc(-c2nc(-c3ccccc3)c(-c3ccccc3)[nH]2)cc1 ?
Return: -1
